Reference source for all entries: PubChem BioAssay (NCI)

- Tested on: SW-620 colon
Where a SMILES comes first, the peptide text is derived from it. [ ]: non-standard residue; d: D form. The star is where a group is joined. Nle = CCCC[C@H](N)C(=O)O; Cbz = O=C(OCc1ccccc1)*
Labels: active, inactive

compound: CCCOC(=O)c1ccc2c(c1)[N+](=O)C(C(=O)c1ccccc1)=C(C(F)(F)F)[N+]2=O
discrete.label: inactive
--
compound: COC(=O)C(=Cc1ccccc1[N+](=O)[O-])C(=O)OC
discrete.label: inactive
--
compound: NC1CCCCC1N.O=NN1CCCCCC1(P(=O)([O-])[O-])P(=O)([O-])[O-].[Na+].[Pt+2]
discrete.label: inactive
--
compound: COc1ccc2c(c1)SC1=NNC(Cl)C(=O)N12 (configuration not stated)
discrete.label: inactive
--
compound: CCC[CH2][Sn]1([CH2]CCC)[O]CC(c2ccccn2)C[O]1
discrete.label: inactive
--
compound: C/C(Cc1ccc(Cl)cc1)=C(\c1ccc(OCCN2CCCCCC2)cc1)c1ccc(OC(=O)c2ccccc2)cc1
discrete.label: inactive
--
compound: C=CC(=O)N1CC2(CCC(n3nc(-c4ccc(Oc5ccccc5)cc4)c4c(N)ncnc43)CC2)C1
discrete.label: inactive
--
compound: CCCC[C@@H](C=O)NC(=O)[C@H](CC(C)C)NC(=O)[C@H](CC(C)C)NC(=O)OCc1ccccc1 (Cbz-Leu-Leu-[Nle]-aldehyde)
discrete.label: active
--
compound: C=C1C(=O)c2sccc2C(c2ccc(OC)c(OC)c2)C1COC(C)=O (configuration not stated)
discrete.label: inactive
--
compound: Clc1ccc(-c2ccc(CNCC3CCNCC3)o2)c(-c2ccccc2)c1
discrete.label: inactive
--
compound: COc1cccc2c(Nc3ccc(C(=O)O)cc3)cc(-c3ccccc3)nc12
discrete.label: inactive
--
compound: O=C1OC(c2cccc(C(F)(F)F)c2)(c2cccc(C(F)(F)F)c2)c2ccc3ccccc3c21
discrete.label: inactive
